Assay: PubChem AID 504770
Conditions: E. coli YBA685 rctB-dependent plasmid, OD600 growth, 3 h; hits give low values
Out of some 130,000 compounds screened, about 350 (0.27%) were called active. The full list was thinned out, with actives kept by preference.
Experimental endpoint: z-score
Reply with the value as a number alone.

Sample records with z-score:
| Compound | Experimental endpoint | Reported |
| --- | --- | --- |
| N#CC(C#N)=Cc1ccc(-c2cccc(C(=O)O)c2)o1 | z-score | 1.85 |
| O=C(CC(NCc1ccco1)C(=O)O)Nc1cccc(C(F)(F)F)c1 (centres undefined) | z-score | 1.45 |
| Cc1cc(/C=C2\C(=O)NC(=S)N(c3ccccc3F)C2=O)c(C)n1-c1ccc(Cl)c(C(=O)O)c1 | z-score | -0.8 |
| N#Cc1c(SCC(=O)C23CC4CC(CC(C4)C2)C3)sc2c(=O)[nH]c(=O)[nH]c12 | z-score | -0.7 |
| O=C1C(=O)N(CCO)C(c2ccccc2)/C1=C(/O)c1ccccc1 (centres undefined) | z-score | -0.3 |
| CCS(=O)(=O)c1ccc2c(c1)N1CCS(=O)(=O)N=C1O2 | z-score | 0.9 |
| O=C1Nc2ccccc2C1=Nc1cccc(C(F)(F)F)c1 | z-score | -1.05 |
| C=CCN(CC=C)C(=O)COc1ncnc2sccc12 | z-score | -0.3 |

input: // query z-score value for entry Cc1ccc(Cn2c(=O)c3ccccc3n3c(SCC4CCCO4)nnc23)cc1 (centres undefined)
output: -0.7

input: Please do the same for COc1ccc(NC(=O)C(=S)N2CCCCC2)cc1 as well.
output: -0.45

input: Moving on to c1ccc(-n2nnnc2Sc2nc(C3CC3)n(-c3ccccc3)n2)cc1
output: 0.25

input: Request: CS(=O)(=O)N1CCN=C1SCc1cccnc1
output: -0.85

input: Quick one: O=C(CCSc1nc(-c2ccco2)cc(C(F)(F)F)n1)N1CCCC1
output: 0.85

input: Query Cc1nn(CCCC(=O)NCCC2=CCCCC2)c(=O)c2nccn12 next
output: 0.9

input: Then what about the compound Cn1cc(NC(=O)N2CCc3ccccc3C2)c2ccccc21 ?
output: 0.5

input: Now the same for N#CC(c1ccc(F)cc1)N1CCOCC1 (centres undefined)
output: -1.05

input: Try this compound next: CCCCSc1nnc2c(=O)[nH]c(=O)[nH]c2n1
output: -1.6

input: Try the compound O=C(Nc1ccc(Cl)c(Cl)c1)Nc1ccnn1C1CCCCC1
output: -1.3

input: What would you report for CC(=O)Oc1cccc2c1C(=O)C=CC2=O ?
output: -6.5
